- System: MS2 coat protein
- protocol.summary: apparent KD of MS2 coat protein; higher = weaker reporter binding
- details: Eterna round: R107; input ligand: none
# label = Fulfilled if apparent KD of MS2 coat protein >= 20 nM else Not fulfilled

1. UAUCGUCAGACGGCCGCCACUAGAACAUGAGGAUCACCCAUGUAGGCGGCCGAUUCCUCAUGAACUAGGACCGGGUCUGACGAAU [(Trp1)-(Ms2)-(T)'-(M)'-(Trp2)_Design12] = Not fulfilled
2. UGGGUAGAAUAGAUAGAUAGAUAAACUGAAGGAGCGAGAAUAAACUCAGGUAGGUCGCAGACAUGAGGAUCACCCAUGUAGAUGG [Same State Arginine A GF15] = Fulfilled
3. GCUAGUGGCAGAAGGAGCGAGGCCCGCGCACAUAACAUGAGGAUCACCCAUGUGGCGAGACCUCAGGUAGGUCGCUGCCACUAGC [EAB NP+V2 #1] = Not fulfilled
4. AGCUCGCAUCCUCUAGCGUCAAAGACGCGUCGAGGACCGGUACGGCCGCCACUCGACUUGAGGAACACCCAAGUCCUAGCGAGCA [TrypAX 12 #SwitchBubble #AlternativeMS2 #MS2Late #CuTurnoff] = Fulfilled
5. ACAUGAGGAUCACCCAUGUAGUAGUCAGAAGGAGCGUGGAAUAACACAGGUAGGUCGCUGAUGUUUGGUUAAAUGUAAUCGUGUA [#30 Same State - Arginine A] = Not fulfilled

----------
- Tested on: MS2 coat protein
- protocol.summary: apparent KD of MS2 coat protein; higher = weaker reporter binding
- details: Eterna round: R107; input ligand: arginine 13.2 mM
quantity: apparent KD of MS2 coat protein (nM)

1. UAACAUGAGGAUCACCCAUGUAUACUAAGUCGAGGACCGGUACGGCCGCCACUCGAAAUUGAAGAAUUGGCGGUAAAUGUAAGUA [JR_ExcTryptoA_Sub019] = 12.6
2. GUAAUUUUAAGAAGGAGCGUCGAAAAUGGGUAAACAUGAGGAUCACCCAUGUAAAGGGAACGACAGGUAGGUCGCUUAGGAUUAC [AstromonsSSArgB#23] = 113
3. AGCGACAUGCAUGAUACCAGCUACAUGAGGAUCACCCAUGUACGUCAGUAAUGACUGUGUAGCCCUUGGCAGCAUAGAGCAUGUU [Exclusion - Theophylline B (Freestyle 15)] = 15.7

----------
- Tested on: K4 kissing-loop RNA reporter;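 also: bound reporter read as fluorescence of individual clusters on recovered sequencing chips by microscopy, with normalized cluster intensities fitted with a binding model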
- protocol.summary: apparent KD of K4 kissing-loop reporter; higher = weaker reporter binding
- details: Eterna round: R107; input ligand: none
Each record here notes measured apparent KD of K4 kissing-loop reporter.
quantity: apparent KD of K4 kissing-loop reporter (nM)

1) GAGCGGUAGAGGCUACCGCUAUUCUGAGAAGGAGCGCAGAUGACUGCAGGUAGGUCGCUUAGAGCUUGCAGUGAUGUUGCAAGUU [Inzarier] = 191
2) CGCUUAGUGAUGUUUGAUUUGGCGCAUGCAGAGGAUAUAGGGUGCUUUAGAAGGCUGAGGAGUGCGCCGAGUGAUGUUCGGCGCU [Exclusion FMN A GF12] = 212
3) CAUAUAUACACUAACCCGUACGGUAGUAAGCGAGGACCGGUACGGCCGCCACUCGAUCGUUUCGUGUUAGCACCAGUGAUGUUGG [theeternabot_sameState_KL_Trp_A_3] = 526

Values from the supplement of paper PMC9170038
